src = PubChem BioAssay AID1963958

# reported viability, T/C; entries follow
- System: MDA-MB-231 multicell spheroids, viability
- Method Notes: Anticancer human tumor MDA-MB-231 cell line growth inhibition [PI3K];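 note: spheroids exposed to agents for seven days before reading; percent of vehicle control luminescence with DMSO treated spheroids as 100%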
- Settings: second compound 0.1 µM; first compound 0.1 µM; hits give low values
Measured Attribute: viability, T/C (%)

- C#Cc1c(F)ccc2cc(O)cc(-c3ncc4c(N5CC6CCC(C5)N6)nc(OCC56CCCN5CC(F)C6)nc4c3F)c12 (stereo not drawn) + CC(Nc1ccc2c(c1)OCCn1cc(N3C(=O)OCC3C(F)F)nc1-2)C(N)=O: 65.3
- CC(C)NCC(C(=O)N1CCN(c2ncnc3c2C(C)CC3O)CC1)c1ccc(Cl)cc1 (stereo not drawn) + COc1c(OCCCN2CCOCC2)ccc2c3n(c(=NC(=O)c4cnc(N)nc4)nc12)CCN3: 48.7
- CC(C)NCC(C(=O)N1CCN(c2ncnc3c2C(C)CC3O)CC1)c1ccc(Cl)cc1 (stereo not drawn) + CC(Nc1ncnc2nc[nH]c12)c1cc2cccc(Cl)c2c(=O)n1-c1ccccc1: 88.5
